Recorded IC50, one value per entry.
target: T1, human α4β1 integrin on cells (human, UniProt P13612 34-1032; P05556 21-798); test: Jurkat cell adhesion to VCAM-1
T1 construct: whole, on cells; also called α4β1 cell; Jurkat cells
Bridge positions count the residues as written; N and C are the ends. Square brackets hold non-standard residues; d marks the D form. Phe(4-tBu) = CC(C)(C)c1ccc(C[C@H](N)C(=O)O)cc1; NMeR = CN[C@@H](CCCNC(=N)N)C(=O)O; β3hE = N[C@@H](CCC(=O)O)CC(=O)O; Pen = CC(C)(S)[C@H](N)C(=O)O

Some entries whose results are on file:
binder="Ac-[Pen][NMeR]SDTL[Pen]W[dE][dK]-NH2 (disulfide 1-7; not fully specified (residue 10); printed as (Ac Pen N-Me-R S D T L Pen W e k NH2)2 DIG, disulfide Pen-Pen; also: homodimer via DIG linker) [SEQ ID NO: 68]" measurement_type=IC50 value_observed="> 100 µM"
binder="Ac-[Pen][NMeR]SDTL[Pen]WE[dK]-NH2 (disulfide 1-7; not fully specified (residue 10); printed as (Ac Pen N-Me-R S D T L Pen W E k NH2)2 DIG, disulfide Pen-Pen; also: homodimer via DIG linker, also called Peptide Z) [SEQ ID NO: 67]" measurement_type=IC50 value_observed="> 100 µM"
binder="Ac-[Pen][NMeR]SDTL[Pen][Phe(4-tBu)][β3hE][dK]-NH2 (disulfide 1-7; not fully specified (residue 10); printed as (Ac Pen N-Me-R S D T L Pen F(4tBu) b-H-E k NH2)2 DIG, disulfide Pen-Pen; also: homodimer, two subunits joined by DIG linker, the second listing is the acetate salt) [SEQ ID NO: 132]" measurement_type=IC50 value_observed="> 100 µM"

Note down IC50 recorded for Ac-[Pen][NMeR]SDTL[Pen]WE[dK]-OH (disulfide 1-7; not fully specified (residue 10); printed as (Ac Pen N-Me-R S D T L Pen W E k OH)2 DIG, disulfide Pen-Pen; also: homodimer: two subunits linked by DIG via D-Lys10 side chain) [SEQ ID NO: 78]
> 100 µM
